- EXPERIMENT SUMMARY: differential killing of epithelial or mesenchymal cells, primary screen, imaging, PC-3E GFP, TEM4-18 mCherry, co-culture (AID 1345086);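 further: normalised mesenchymal count divided by normalised epithelial count so high means epithelial killing; cells exposed to compound for 72 h before imaging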
- MEASUREMENT CONTEXT: imaging cell counts, at 1 µM, actives lie on both sides, counts scaled to control wells, 1 = unselective
TEST READOUT: red/green cell ratio (normalised)

COMPOUND	OBSERVED VALUE
C[C@H](Oc1ccc(Oc2ccc3ncc(Cl)nc3c2)cc1)C(=O)O	0.92
CC(C)C1CCC(C(=O)N[C@@H](Cc2ccccc2)C(=O)O)CC1 (some centres undefined)	0.92
Cc1nc(COP(=O)(O)O)cc(CN(CCN(CC(=O)O)Cc2cc(COP(=O)(O)O)nc(C)c2[O-])CC(=O)O)c1[O-].[Mn+2]	0.88
COC(=O)NC1[C@@H](O)C(O)C(CO)O[C@H]1Sc1ccccc1 (some centres undefined)	0.91
